Experiment: Clearance in B10.R3 mouse at 1 mg/kg, iv
Type: ADME, organism-based
Design: dose 1 mg/kg, route intravenous
Conditions: in vivo
metricName: clearance
State the value with its unit after it.

Prompt line: Consider the compound shown here: CC(C)(C[C@@](O)(Cc1cc2ccc(C#N)cc2[nH]1)C(F)(F)F)c1cc(S(C)(=O)=O)cc2c1OCC2 What is its recorded clearance?
Response line: 4 mL/min/kg

###

Molecular target: UniProt:P04150
Assay: Agonist activity at glucocorticoid receptor in HFF assessed as inhibition of IL1-induced IL-6 production after 18 to 24 hrs
Assay type: functional
metricName: pIC50
Notebook: values listed as pIC50 are -log10 of the concentration (mol/L).

Use these answered entries as a reference point.
- molecule: "CC(C)(CC(O)(Cc1cc2ccccc2[nH]1)C(F)(F)F)c1cc(S(C)(=O)=O)cc2c1OCC2 (racemic)"
  systemName: "UniProt:P04150"
  pIC50: 7.00
- molecule: "COc1ccc(F)cc1C(C)(C)C[C@@](O)(Cc1cc2ccccc2[nH]1)C(F)(F)F"
  systemName: "UniProt:P04150"
  pIC50: 8.22
- molecule: "COc1ccc(F)cc1C(C)(C)CC(O)(Cc1cc2c(C(F)(F)F)cccc2[nH]1)C(F)(F)F (racemic)"
  systemName: "UniProt:P04150"
  pIC50: 6.54
- molecule: "COc1ccc(F)cc1C(C)(C)CC(O)(Cc1cc2ccc(F)cc2[nH]1)C(F)(F)F (racemic)"
  systemName: "UniProt:P04150"
  pIC50: 7.54
- molecule: "COc1ccc(F)cc1C(C)(C)C[C@@](O)(Cc1cc2cc(C#N)ccc2[nH]1)C(F)(F)F"
  systemName: "UniProt:P04150"
  pIC50: 8.52

Now for a further molecule.
Prompt line: Form field: pIC50 recorded for Cc1cc2c(c(C(C)(C)CC(O)(Cc3cc4ccccc4[nH]3)C(F)(F)F)c1)OCC2 (racemic) with UniProt:P04150 (enter value)
Response line: 8.15

###

Target: Glucocorticoid receptor (Homo sapiens)
Experiment: Agonist activity at glucocorticoid receptor in human HeLa cells transfected with luciferase gene linked to MMTV promoter assessed as luciferase transactivation activity
Type: functional, cell-based
// EC50 lookup, one value per entry

For orientation, consider the following solved cases.
- compound: "CC(C)(CC(O)(Cc1cc2ccc(C#N)cc2[nH]1)C(F)(F)F)c1cc(S(C)(=O)=O)cc2c1OCC2 (racemic)"
  metricName: "EC50"
  testValue: "> 2000 nM"
- compound: "COc1ccc(F)cc1C(C)(C)C[C@@](O)(Cc1cc2cc(C#N)ccc2[nH]1)C(F)(F)F"
  metricName: "EC50"
  testValue: "36 nM"

Prompt line: Given the compound CC(C)(C[C@@](O)(Cc1cc2ccc(C#N)cc2[nH]1)C(F)(F)F)c1cc(S(C)(=O)=O)cc2c1OCC2 , what is its reported EC50?
Response line: > 2000 nM

Prompt line: Any idea what its EC50 is? The compound is CC(C)(CC(O)(Cc1cc2ccccc2[nH]1)C(F)(F)F)c1cc(S(C)(=O)=O)cc2c1OCC2 (racemic)
Response line: > 2000 nM

Prompt line: Entry under review: CC(C)(CC(O)(Cc1cc2cc(C#N)ccc2[nH]1)C(F)(F)F)c1cc(S(C)(=O)=O)cc2c1OCC2 (racemic) . Reported EC50?
Response line: > 2000 nM

###

Experiment: AUC (infinity) in Sprague-Dawley rat at 30 mg/kg, po
Format: ADME, organism-based
Parameters: dose 30 mg/kg, route oral, time infinity
Details: plasma
metricName: AUC(0-inf) (ng·h/mL)
Quick note: give the figure in ng·h/mL, leave out the unit.

Prompt line: Entry CC(C)(C[C@@](O)(Cc1cc2ccc(C#N)cc2[nH]1)C(F)(F)F)c1cc(S(C)(=O)=O)cc2c1OCC2 : reported AUC(0-inf) = ?
Response line: 4850

###

Biological target: Glucocorticoid receptor (Homo sapiens)
Test: Transactivation activity of glucocorticoid receptor in HFF assessed as induction of aromatase activity by measuring beta-estradiol activity after 18 to 24 hrs by ELISA
Settings: read-out: EC50
metricName: EC50 (nM)
Your answer is read as nM, so omit the unit and give the number.

Below are worked cases with known answers.
- compound: "COc1ccc(F)cc1C(C)(C)CC(O)(Cc1cc2ccc(C#N)cc2[nH]1)C(F)(F)F (racemic)"
  EC50, nM: 113
- compound: "COc1ccc(F)cc1C(C)(C)CC(O)(Cc1cc2cc(F)ccc2[nH]1)C(F)(F)F (racemic)"
  EC50, nM: 94

Here's the next entry for you.
Prompt line: Please give the measured EC50 for this compound: CC(C)(CC(O)(Cc1cc2cc(C#N)ccc2[nH]1)C(F)(F)F)c1cc(S(C)(=O)=O)cc2c1OCC2 (racemic)
Response line: 80

###

Listing: IC50 of selected compounds
Target: Progesterone receptor (Homo sapiens, UniProt P06401)
Sequence (P06401 whole entry): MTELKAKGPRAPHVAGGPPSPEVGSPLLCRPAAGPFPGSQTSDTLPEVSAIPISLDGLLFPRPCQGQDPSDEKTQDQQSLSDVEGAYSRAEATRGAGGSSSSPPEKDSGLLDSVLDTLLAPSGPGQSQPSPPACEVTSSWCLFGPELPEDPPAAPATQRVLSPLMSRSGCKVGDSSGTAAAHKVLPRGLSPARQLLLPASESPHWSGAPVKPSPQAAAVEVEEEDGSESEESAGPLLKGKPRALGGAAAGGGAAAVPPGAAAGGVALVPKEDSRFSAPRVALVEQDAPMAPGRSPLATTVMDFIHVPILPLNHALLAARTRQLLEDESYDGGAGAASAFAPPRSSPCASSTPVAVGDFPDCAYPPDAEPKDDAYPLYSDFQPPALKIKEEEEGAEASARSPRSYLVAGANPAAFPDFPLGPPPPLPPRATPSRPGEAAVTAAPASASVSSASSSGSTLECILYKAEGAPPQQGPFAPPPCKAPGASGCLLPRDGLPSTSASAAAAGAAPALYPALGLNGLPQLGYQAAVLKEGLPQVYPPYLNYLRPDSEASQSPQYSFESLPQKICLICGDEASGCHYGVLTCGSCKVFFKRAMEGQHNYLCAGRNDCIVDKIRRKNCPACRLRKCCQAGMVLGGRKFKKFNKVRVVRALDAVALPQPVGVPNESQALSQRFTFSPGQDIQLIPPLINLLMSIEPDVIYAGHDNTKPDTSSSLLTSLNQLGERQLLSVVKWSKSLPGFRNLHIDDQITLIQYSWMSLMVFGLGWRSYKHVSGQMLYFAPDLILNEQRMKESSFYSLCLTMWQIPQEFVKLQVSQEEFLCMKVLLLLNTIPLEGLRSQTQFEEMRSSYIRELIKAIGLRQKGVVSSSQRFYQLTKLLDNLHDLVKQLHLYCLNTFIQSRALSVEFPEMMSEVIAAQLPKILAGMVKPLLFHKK
Test: Displacement of tetramethylrhodamine-labeled RU-486 from human recombinant progesterone receptor expressed in baculovirus infected insect cells by fluorescence polarization assay
Kindly provide the numeric value in nM only, without the unit symbol.

Past entries and their recorded results:
- compound: "COc1ccc(F)cc1C(C)(C)CC(O)(Cc1cc2ccc(C)cc2[nH]1)C(F)(F)F (racemic)"
  resultUnits: "nM"
  IC50: 1250
- compound: "COc1ccc(F)cc1C(C)(C)C[C@@](O)(Cc1cc2ccccc2[nH]1)C(F)(F)F"
  resultUnits: "nM"
  IC50: 207
- compound: "CC(C)(CC(O)(Cc1cc2ccccc2[nH]1)C(F)(F)F)c1cc(Br)cc2c1OCC2 (racemic)"
  resultUnits: "nM"
  IC50: 415
- compound: "COc1ccc(F)cc1C(C)(C)CC(O)(Cc1cc2ccc(F)cc2[nH]1)C(F)(F)F (racemic)"
  resultUnits: "nM"
  IC50: 265
- compound: "CC(C)(C[C@](O)(Cc1cc2ccc(C#N)cc2[nH]1)C(F)(F)F)c1cc(S(C)(=O)=O)cc2c1OCC2"
  resultUnits: "nM"
  IC50: 1400

Prompt line: Value lookup for IC50; key = COc1ccc(F)cc1C(C)(C)CC(O)(Cc1cc2cccc(F)c2[nH]1)C(F)(F)F (racemic)
Response line: 930

Prompt line: Give the measured IC50 of Cc1cc2c(c(C(C)(C)CC(O)(Cc3cc4ccccc4[nH]3)C(F)(F)F)c1)OCC2 (racemic) .
Response line: 145

Prompt line: Query: IC50; subject: CC(C)(CC(O)(Cc1cc2ccccc2[nH]1)C(F)(F)F)c1cc(F)cc2c1OCC2 (racemic)
Response line: 255

Prompt line: Dear colleague, I am looking for the recorded IC50 of the following compound: COc1ccc(F)cc1C(C)(C)CC(O)(Cc1cc2c(C#N)cccc2[nH]1)C(F)(F)F (racemic)
Response line: 440

Prompt line: Sample CCc1cccc2[nH]c(CC(O)(CC(C)(C)c3cc(F)ccc3OC)C(F)(F)F)cc12 (racemic) — what was its IC50?
Response line: 1000

Prompt line: Please report the recorded IC50 for COc1ccc(F)cc1C(C)(C)CC(O)(Cc1cc2ccc(C(F)(F)F)cc2[nH]1)C(F)(F)F (racemic) .
Response line: 1600

Prompt line: What value of measured IC50 is listed for COc1ccc(F)cc1C(C)(C)CC(O)(Cc1cc2c(C)cccc2[nH]1)C(F)(F)F (racemic) ?
Response line: 350

Prompt line: Find the recorded IC50 belonging to CC(C)(CC(O)(Cc1cc2ccccc2[nH]1)C(F)(F)F)c1cccc2c1OCC2 (racemic) and report it.
Response line: 225

###

Reported Efficacy values for a set of compounds
Molecular target: Glucocorticoid receptor (Homo sapiens) (UniProt P04150)
Sequence (whole entry): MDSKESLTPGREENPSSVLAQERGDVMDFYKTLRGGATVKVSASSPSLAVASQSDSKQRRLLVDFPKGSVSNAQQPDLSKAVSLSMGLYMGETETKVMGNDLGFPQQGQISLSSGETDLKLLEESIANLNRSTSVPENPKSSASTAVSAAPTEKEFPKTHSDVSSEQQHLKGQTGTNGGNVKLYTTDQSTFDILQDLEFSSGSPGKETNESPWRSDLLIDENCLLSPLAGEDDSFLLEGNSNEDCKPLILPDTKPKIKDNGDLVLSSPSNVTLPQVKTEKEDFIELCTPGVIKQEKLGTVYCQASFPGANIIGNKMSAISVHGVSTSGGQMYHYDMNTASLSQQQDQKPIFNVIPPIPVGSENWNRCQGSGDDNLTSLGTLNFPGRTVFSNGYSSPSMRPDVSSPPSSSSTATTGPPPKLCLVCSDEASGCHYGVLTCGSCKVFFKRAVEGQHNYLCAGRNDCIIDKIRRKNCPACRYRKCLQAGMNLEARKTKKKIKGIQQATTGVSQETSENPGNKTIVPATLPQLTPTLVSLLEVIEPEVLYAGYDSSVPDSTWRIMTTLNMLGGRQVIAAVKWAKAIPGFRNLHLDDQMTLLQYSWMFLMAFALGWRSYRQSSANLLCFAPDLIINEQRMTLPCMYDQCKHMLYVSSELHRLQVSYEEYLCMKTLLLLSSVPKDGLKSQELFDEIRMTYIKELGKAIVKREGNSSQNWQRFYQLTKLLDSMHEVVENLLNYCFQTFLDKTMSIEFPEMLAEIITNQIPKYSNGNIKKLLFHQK
Assay: Agonist activity at glucocorticoid receptor in HFF assessed as inhibition of IL1-induced IL-6 production after 18 to 24 hrs relative to Dexamethasone
Format: functional
Write down the value, and be sure its unit follows.

- compound: "COc1ccc(F)cc1C(C)(C)CC(O)(Cc1cc2cc(C(F)(F)F)ccc2[nH]1)C(F)(F)F (racemic)"
  testValue: "77%"
- compound: "CC(C)(C[C@@](O)(Cc1cc2ccc(C#N)cc2[nH]1)C(F)(F)F)c1cc(S(C)(=O)=O)cc2c1OCC2"
  testValue: "88%"
- compound: "CC(C)(CC(O)(Cc1cc2ccccc2[nH]1)C(F)(F)F)c1cc(Br)cc2c1OCC2 (racemic)"
  testValue: "88%"
- compound: "COc1ccc(F)cc1C(C)(C)C[C@@](O)(Cc1cc2cc(C#N)ccc2[nH]1)C(F)(F)F"
  testValue: "90%"
- compound: "COc1ccc(F)cc1C(C)(C)CC(O)(Cc1cc2cc(F)ccc2[nH]1)C(F)(F)F (racemic)"
  testValue: "84%"

Let us examine a further case.
Prompt line: For CC(C)(CC(O)(Cc1cc2ccccc2[nH]1)C(F)(F)F)c1cc(F)cc2c1OCC2 (racemic) , what is its reported Efficacy?
Response line: 90%
